Data provenance is patent US8975250B2.

Structures can show the parent of a compound that is named as a salt.
parameter measured: melting point (°C)
Just the number please, in °C, no unit attached.

Examples from the recorded data:
NCCCn1c(N)c(C(N)=O)c(=O)c2cnc(Nc3ccc(N4CCOCC4)cc3)nc21 (as salt: HCl): 250
CCn1c(N)c(C(N)=O)c(=O)c2cnc(Nc3ccc(C4CCN(CCC(F)(F)F)CC4)cc3OC)nc21 (as salt: HCl): 199

Query: Look up melting point: CCn1c(N)c(C(N)=O)c(=O)c2cnc(Nc3cccc(N4CCOCC4)c3)nc21
Result: 195

Query: Entry NC(=O)c1c(N)n(C2CCCC2)c2nc(Nc3ccc(N4CCOCC4)cc3)ncc2c1=O please
Result: 265

Query: Entry CCn1c(N)c(C(N)=O)c(=O)c2cnc(Nc3ccc(CCO)cc3)nc21 please
Result: 289

* * *

Where a name gives a salt, the structure may show the parent alone.
parameter measured: melting point

Examples from the recorded data:
COc1cc(C2CCNCC2)ccc1Nc1ncc2c(=O)c(C(N)=O)c(N)n(-c3ccccc3)c2n1 (as salt: HCl) [compound 113]: 228 °C (dec.)
CCn1c(N)c(C(N)=O)c(=O)c2cnc(Nc3ccc(CCN4CCCCC4)cc3)nc21 (as salt: HCl) [compound 65]: 216 °C
CCN1CCN(c2cc(F)c(Nc3ncc4c(=O)c(C(N)=O)c(N)n(CC)c4n3)c(OC)c2)CC1 (as salt: HCl) [compound 28]: > 260 °C
COCCN1CCC(c2ccc(Nc3ncc4c(=O)c(C(N)=O)c(N)n(CC(C)(C)O)c4n3)c(OC)c2)CC1 (as salt: HCl) [compound 133]: 170 °C (dec.)
COc1cc(C2CCN(CCC(F)(F)F)CC2)ccc1Nc1ncc2c(=O)c(C(N)=O)c(N)n(CC(C)(C)O)c2n1 (as salt: HCl) [compound 130]: > 260 °C

Query: Look up melting point: CCn1c(N)c(C(N)=O)c(=O)c2cnc(Nc3ccc(C4CCN(C5CC5)CC4)cc3OC)nc21 (as salt: HCl) [compound 29]
Result: 226 to 228 °C

* * *

Where a name gives a salt, the structure may show the parent alone.
parameter measured: melting point

Examples from the recorded data:
CCn1c(N)c(C(N)=O)c(=O)c2cnc(Nc3ccc([C@@H]4C[C@H]4N(C)C)cc3)nc21 (racemic) (as salt: HCl): 208 to 210 °C (dec.)
CCN1CCN(c2ccc(Nc3ncc4c(=O)c(C(N)=O)c(N)n(CC(C)(C)O)c4n3)c(OC)c2)CC1 (as salt: HCl): 222 °C (dec.)

Query: Look up melting point: COc1cc(C2CCN(C)CC2)ccc1Nc1ncc2c(=O)c(C(N)=O)c(N)n(-c3ccccc3)c2n1 (as salt: HCl)
Result: 256 °C (dec.)

Query: Entry CCn1c(N)c(C(N)=O)c(=O)c2cnc(Nc3ccc(O)cc3)nc21 please
Result: > 260 °C

Query: Entry CCn1c(N)c(C(N)=O)c(=O)c2cnc(Nc3ccc(N4CCN(C5CC5)CC4)cc3OC(F)F)nc21 (as salt: HCl) please
Result: 204 to 206 °C
